meta.source: patent US20150018417A1

Catalogue of compounds with associated EC50
# TARGET_DESC: PPARγ (Homo sapiens, UniProt P37231)
# Sequence (P37231 whole entry, species assumed): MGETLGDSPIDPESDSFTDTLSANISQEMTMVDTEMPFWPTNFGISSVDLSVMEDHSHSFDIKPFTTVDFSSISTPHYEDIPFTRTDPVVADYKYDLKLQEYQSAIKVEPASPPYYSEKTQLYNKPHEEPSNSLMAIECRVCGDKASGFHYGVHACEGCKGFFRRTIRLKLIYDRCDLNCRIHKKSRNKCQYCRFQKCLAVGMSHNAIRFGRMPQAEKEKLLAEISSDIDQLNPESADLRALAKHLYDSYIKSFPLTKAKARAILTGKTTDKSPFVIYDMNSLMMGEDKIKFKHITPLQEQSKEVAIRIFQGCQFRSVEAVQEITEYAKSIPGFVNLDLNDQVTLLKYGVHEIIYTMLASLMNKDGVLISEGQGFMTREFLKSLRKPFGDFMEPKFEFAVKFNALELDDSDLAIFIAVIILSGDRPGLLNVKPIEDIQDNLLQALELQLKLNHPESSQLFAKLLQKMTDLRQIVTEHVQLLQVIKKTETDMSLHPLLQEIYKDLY
# PROTOCOL_DESCRIPTION: PPARγ beta-lactamase reporter assay
# CONDITIONS_USED: concentrations 0.5-10,000 nM, read-out: EC50 PPARγ activation

Some compounds with known EC50 results, for comparison:
[
  {
    "COMPOUND": "CC/C=C\\CC(=O)C=C/C=C\\C/C=C\\C/C=C\\CCCCCC(=O)O [17-oxoDPA]",
    "EC50": "~40 nM"
  },
  {
    "COMPOUND": "CCCCCC=CC=C1C(=O)C=C[C@@H]1CC=CCCCC(=O)O [15d-PGJ2, 15-deoxy-Δ (12,14)-prostaglandin J2, reference compound]",
    "EC50": "~25 nM"
  },
  {
    "COMPOUND": "CC/C=C\\CC(O)/C=C/C=C\\C/C=C\\C/C=C\\CCCCCC(=O)O (stereo not shown) [17-OH-DPA, reference compound]",
    "EC50": "> 10000 nM"
  }
]

Note to self: EC50 recorded for CC/C=C\CC(=O)C=C/C=C\C/C=C\C/C=C\C/C=C\CCC(=O)O [17-oxoDHA] was ~40 nM
